Source listed as the supplement of paper PMC10126150.

# System: ATP;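 further: ATP exposure 15 min at 22 °C before imaging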
# assay_overview: switch fluorescence ratio, 500 uM ATP over buffer (Cy3 cluster intensity, sum of 5 cycles each) (fold (ratio)); higher = stronger signal-on switching upon ATP binding; sequences stand for … in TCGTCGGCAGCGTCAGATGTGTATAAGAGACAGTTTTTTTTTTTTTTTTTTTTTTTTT…TC
# condition_info: aptamer strand: ATP DNA aptamer (quencher-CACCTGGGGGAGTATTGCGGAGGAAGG + anchor), 100 nM annealed; ATP concentration: 500 uM
quantity: switch fluorescence ratio

* TTGCTGGGCG | 0.995
* AAGGGAGGAC | 0.994
* TGGTGGTTGT | 1.02
* TTGCTGGCCG | 1.03
* TTAACCAGTC | 1.04
* GGGGTGGCTA | 1.02
* CTAGGGGGTC | 0.993
* TGACAGACAT | 1.1
* AGTCACGTAG | 1.03
* GCGGGTAGCG | 0.983
* GTGTACTCGA | 1.04
* AAAGGGCTGT | 1.01
* TTAAGCTGAA | 0.961
* CGGACACGTT | 0.983
* ATTGGCAGTG | 1
* TTTAACGAAT | 1.09
* AAAAGTGTCG | 1.06
* TGGGGAGGTT | 0.97
* TCGTCGTACG | 1.02
* GAAAAAGTCA | 1.01
* TGGGGGGCTT | 0.989
* TATTCTGGTT | 1.02
* TAGGCATTTG | 1.01
* TTCACTGGGC | 1.01
* TAAGTGGAC | 1.04
* GTACTTTAAT | 1.03
* TGGGTAGGTT | 1.06
* TTTGTTATAT | 0.984
* GCATGTGTAT | 1.01
* TTATTAAATG | 0.998
* TTGTGAGGGG | 0.988
* TTTTTCTACG | 1.2
* TCTTGTTAT | 1.01
